Would you kindly list MIC (minimal inhibitory concentration) for each of these substances?
Test system: M. catarrhalis
Format: cell-based, Moraxella catarrhalis
Conditions: M. catarrhalis grown to OD600 0.6 in BHI, diluted to OD600 0.01; AMP 25 µM to 0.048 µM at halving intervals; 37°C, 5% CO2; OD600 every 30 min
Ends that are not written are not given here.

Input line: Specify MIC (minimal inhibitory concentration) for SIGSAFKKALPVAKKIGKAALPIAKAALP [Ceratotoxin] and stop.
Output line: > 25 µM

Input line: Specify MIC (minimal inhibitory concentration) for GWLKKIGKKIERVGQHTRDATIQTIGVAQQAANVAATLKG-NH2 [Sarcotoxin 1 C] and stop.
Output line: 0.37 µM

Input line: Specify MIC (minimal inhibitory concentration) for GFLKKIGKKLEGAVQRTRDATIQTIAVAQAAANVAATAKQ [Cecropin(Sarcotoxin)] and stop.
Output line: 1.56 µM

Input line: Specify MIC (minimal inhibitory concentration) for RGFRKHFNKLVKKVKHTISETAHVAKDTAVIAGSGAAVVAAT-NH2 [Stomoxyn (Stomoxys calcitrans)] and stop.
Output line: ~ 25 µM

Input line: Specify MIC (minimal inhibitory concentration) for VDKGSYLPRPTPPRPIYNRN [Pyrrhocoricin] and stop.
Output line: > 25 µM
